experimental target: human recombinant muscarinic receptor subtype 1 (M1) expressed in CHO cells (Homo sapiens, UniProt P11229)
Construct: purchased Biosignal, Canada; host or cells: CHO cells
Sequence (P11229 1-460): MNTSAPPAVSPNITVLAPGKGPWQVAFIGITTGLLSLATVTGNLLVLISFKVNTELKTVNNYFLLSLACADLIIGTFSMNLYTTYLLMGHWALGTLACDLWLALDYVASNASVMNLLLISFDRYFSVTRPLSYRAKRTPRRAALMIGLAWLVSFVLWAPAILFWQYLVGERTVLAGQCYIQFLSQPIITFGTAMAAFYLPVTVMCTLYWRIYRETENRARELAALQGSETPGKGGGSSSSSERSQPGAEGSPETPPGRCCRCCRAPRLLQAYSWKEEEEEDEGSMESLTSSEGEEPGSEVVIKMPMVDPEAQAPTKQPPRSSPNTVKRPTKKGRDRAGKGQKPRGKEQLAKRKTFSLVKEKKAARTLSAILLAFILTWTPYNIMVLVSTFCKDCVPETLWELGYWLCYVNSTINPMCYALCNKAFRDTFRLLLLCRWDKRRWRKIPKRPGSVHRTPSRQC
protocol summary: [3H]-N-methyl-scopolamine ([3H]-NMS) affinity screening test, M1
conditions used: inhibition of specific [3H]-NMS binding
IC50 strictly under 10 µM means 1; at 10 µM or over means 0.

Here's what some known entries look like.
CN1CCC=C(C#CCN2CCCC2=O)C1 | 0
C#CCON=C(CCN1CCCC1=O)C1=CCCN(C)C1 | 0
CN1CCC=C(C(CN2CCCC2=O)=NOCc2ccccc2)C1 (mixture of isomers) | 0

Determine whether this compound shows IC50 lower than 10 µM (ties excluded): `CN1CCC=C(C(CCN2CCCC2=O)=NO)C1` 0

Determine whether this compound shows IC50 lower than 10 µM (ties excluded): `CN1CCC=C(C(CN2CCCC2=O)=NO)C1` 1

* * *

The entries below come with measured inhibition at 1 µM values attached.
experimental target: human recombinant muscarinic receptor subtype 2 (M2) expressed in CHO cells (Homo sapiens, UniProt P08172)
Construct: purchased Biosignal, Canada; host or cells: CHO cells
Sequence (P08172 whole entry): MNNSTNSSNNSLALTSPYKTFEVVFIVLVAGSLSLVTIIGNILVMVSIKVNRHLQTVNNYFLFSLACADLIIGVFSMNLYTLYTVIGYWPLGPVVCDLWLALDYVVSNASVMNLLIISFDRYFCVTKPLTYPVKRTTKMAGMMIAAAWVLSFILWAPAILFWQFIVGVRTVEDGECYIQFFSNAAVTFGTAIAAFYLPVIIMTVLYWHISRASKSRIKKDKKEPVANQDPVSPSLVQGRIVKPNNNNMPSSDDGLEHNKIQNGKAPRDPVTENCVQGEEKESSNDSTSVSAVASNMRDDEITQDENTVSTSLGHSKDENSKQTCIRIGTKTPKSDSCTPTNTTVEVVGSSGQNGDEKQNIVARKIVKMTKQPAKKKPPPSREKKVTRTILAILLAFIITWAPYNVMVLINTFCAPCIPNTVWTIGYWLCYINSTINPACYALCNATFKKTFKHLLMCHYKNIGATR
protocol summary: [3H]-N-methyl-scopolamine ([3H]-NMS) affinity screening test, M2
conditions used: inhibition of specific [3H]-NMS binding, compound at 1 μM
Procedure: [^3H]-N-methyl-scopolamine ([^3H]-NMS) Affinity Screening Test […] In order to determine the effect of each compound on M1 and M2 receptors, the compounds were reacted with the receptors using radioisotope labeled ligands. […] The amount of radioisotopes remaining on the washed filter plate was then measured to quantify the binding reaction between the receptors and the ligands and, from the result, the affinity of the drugs for the receptors was determined. […]
Write it as a number; the unit % goes unstated.

CN1CCC=C(C(CN2CCCC2=O)=NOCc2ccccc2)C1 (mixture of isomers) [Example 29] | 0
CN1CCC=C(C(CCN2CCCC2=O)=NO)C1 [Example 16] | 22.6
C#CCON=C(CCN1CCCC1=O)C1=CCCN(C)C1 [Example 18] | 26.8
CN1CCC=C(C(CN2CCCC2=O)=NO)C1 [Example 26] | 94.1

Data request, read-out inhibition at 1 µM, for CN1CCC=C(C#CCN2CCCC2=O)C1 [Example 30] 42.3

* * *

System: Oxo-M binding receptor of muscarinic receptors (rat forebrain synapse membranes)
protocol summary: [3H]-oxotremorine-M ([3H]-Oxo-M) affinity screening test
conditions used: ratio IC50 NMS / IC50 Oxo-M; >180 full agonist, 14 to 130 partial agonist, 0.2 to 1.9 antagonist
measured parameter: NMS/Oxo-M (ratio of IC50 values)

Some solved cases for reference:
CN1CCC=C(C#CCN2CCCC2=O)C1 | 774
C#CCON=C(CCN1CCCC1=O)C1=CCCN(C)C1 | 35
CN1CCC=C(C(CN2CCCC2=O)=NOCc2ccccc2)C1 (mixture of isomers) | 486
CN1CCC=C(C(CN2CCCC2=O)=NO)C1 | 4078
CN1CCC=C(C(CCN2CCCC2=O)=NO)C1 | 236

Now look at this entry.
Data request, read-out NMS/Oxo-M (ratio of IC50 values), for `C#CCON=C(CN1CCCC1=O)c1cccnc1` 306

Numbers sourced from patent US6716857B2.
